- system: Prohibitin-2 (Homo sapiens)
- experiment.description: Induction of PHB2-mediated melanogenesis in human HBL cells assessed as pigmentation at 10 uM after 10 days relative to control
- Format: cell-based
I'd appreciate it if you could supply fold change (FC) values for the items below.
Format: numeric value only, no unit, no commentary.

Task item: Give its fold change (FC) value. Item: Nc1nc(NCc2cccc(F)c2)nc(Oc2c(F)c(F)c(F)c(F)c2F)n1
Reply: 0.91

Task item: Give its fold change (FC) value. Item: CNc1nc(NCc2ccccc2)nc(Oc2c(F)c(F)c(F)c(F)c2F)n1
Reply: 0.69

Task item: Give its fold change (FC) value. Item: Fc1cccc(CNc2nc(NCc3ccccc3)nc(Oc3c(F)c(F)c(F)c(F)c3F)n2)c1
Reply: 1.1

Task item: Give its fold change (FC) value. Item: CN1CCN(c2nc(NCc3cccc(F)c3)nc(Oc3c(F)c(F)c(F)c(F)c3F)n2)CC1
Reply: 0.65

Task item: Give its fold change (FC) value. Item: CN(C)CCNc1nc(NCc2cccc(F)c2)nc(Oc2c(F)c(F)c(F)c(F)c2F)n1
Reply: 0.59

Task item: Give its fold change (FC) value. Item: CN(C)c1nc(NCc2cccc(F)c2)nc(Oc2c(F)c(F)c(F)c(F)c2F)n1
Reply: 1.05

Task item: Give its fold change (FC) value. Item: Fc1cccc(CNc2nc(NCc3ccncc3)nc(Oc3c(F)c(F)c(F)c(F)c3F)n2)c1
Reply: 0.76

Task item: Give its fold change (FC) value. Item: Fc1cccc(CNc2nc(NCCNc3ccccn3)nc(Oc3c(F)c(F)c(F)c(F)c3F)n2)c1
Reply: 1.09

Task item: Give its fold change (FC) value. Item: CC[C@H](CO)Nc1nc(NC(C)c2cccc(F)c2)nc(Oc2c(F)c(F)c(F)c(F)c2F)n1 (some centres undefined)
Reply: 0.68

Task item: Give its fold change (FC) value. Item: CN(C)CCCNc1nc(Oc2c(F)c(F)c(F)c(F)c2F)nc(N2CCCc3ccccc3C2)n1
Reply: 1.57

Task item: Give its fold change (FC) value. Item: CCC(CO)Nc1nc(NCc2cccc(F)c2)nc(Oc2c(F)c(F)c(F)c(F)c2F)n1 (centres undefined)
Reply: 1.39

Task item: Give its fold change (FC) value. Item: CNc1nc(Oc2c(F)c(F)c(F)c(F)c2F)nc(N(C)[C@@H](C)c2ccccc2)n1
Reply: 0.86

Task item: Give its fold change (FC) value. Item: OCC1CCN(c2nc(NCc3cccc(F)c3)nc(Oc3c(F)c(F)c(F)c(F)c3F)n2)CC1
Reply: 0.84

Task item: Give its fold change (FC) value. Item: CNc1nc(Oc2c(F)c(F)c(F)c(F)c2F)nc(N2CCCc3ccccc3C2)n1
Reply: 0.86

Task item: Give its fold change (FC) value. Item: Fc1c(F)c(F)c(Oc2nc(N3CCC(N4CCCCC4)CC3)nc(N3CCCc4ccccc4C3)n2)c(F)c1F
Reply: 1.79

Task item: Give its fold change (FC) value. Item: Fc1cccc(CNc2nc(NCCc3ccccc3)nc(Oc3c(F)c(F)c(F)c(F)c3F)n2)c1
Reply: 1.11

Task item: Give its fold change (FC) value. Item: CCC(Nc1nc(N[C@H](CC)CO)nc(Oc2c(F)c(F)c(F)c(F)c2F)n1)c1cccc(F)c1 (some centres undefined)
Reply: 0.74

Task item: Give its fold change (FC) value. Item: C[C@H](c1ccccc1)N(C)c1nc(NCCN(C)C)nc(Oc2c(F)c(F)c(F)c(F)c2F)n1
Reply: 1.53

Task item: Give its fold change (FC) value. Item: CNc1nc(Oc2c(F)c(F)c(F)c(F)c2F)nc(N(C)[C@H](C)c2ccccc2)n1
Reply: 0.94

Task item: Give its fold change (FC) value. Item: Fc1cccc(CNc2nc(Oc3c(F)c(F)c(F)c(F)c3F)nc(N3CCC(N4CCCCC4)CC3)n2)c1
Reply: 2.01

Task item: Give its fold change (FC) value. Item: CC(=O)NCCNc1nc(NCc2cccc(F)c2)nc(Oc2c(F)c(F)c(F)c(F)c2F)n1
Reply: 1

Task item: Give its fold change (FC) value. Item: Fc1cccc(CNc2nc(NCCc3cc4ccccc4[nH]3)nc(Oc3c(F)c(F)c(F)c(F)c3F)n2)c1
Reply: 1.25

Task item: Give its fold change (FC) value. Item: CNc1nc(Oc2c(F)c(F)c(F)c(F)c2F)nc(N2CCc3ccccc3C2)n1
Reply: 0.87

Task item: Give its fold change (FC) value. Item: O=C1CCCN1CCCNc1nc(NCc2cccc(F)c2)nc(Oc2c(F)c(F)c(F)c(F)c2F)n1
Reply: 1.04

Task item: Give its fold change (FC) value. Item: CNc1nc(Oc2c(F)c(F)c(F)c(F)c2F)nc(N2Cc3ccccc3C2)n1
Reply: 0.98

Task item: Give its fold change (FC) value. Item: CC(C)CCNc1nc(NCc2cccc(F)c2)nc(Oc2c(F)c(F)c(F)c(F)c2F)n1
Reply: 0.89

Task item: Give its fold change (FC) value. Item: Fc1cccc(CNc2nc(NCCCc3ccccc3)nc(Oc3c(F)c(F)c(F)c(F)c3F)n2)c1
Reply: 1.07

Task item: Give its fold change (FC) value. Item: Fc1cccc(CNc2nc(NCc3ccccn3)nc(Oc3c(F)c(F)c(F)c(F)c3F)n2)c1
Reply: 1.01

Task item: Give its fold change (FC) value. Item: CNc1nc(N[C@H](C)c2ccccc2)nc(Oc2c(F)c(F)c(F)c(F)c2F)n1
Reply: 0.89
